- Test system: Kinesin-1 heavy chain/ Tyrosine-protein kinase receptor RET (Homo sapiens), P07949+P33176 [V804M]
- protocol-details: Inhibition of KIF5B-RET V804M mutant fusion protein (unknown origin) expressed in mouse BaF3 cells assessed as reduction in cell proliferation measured after 48 hrs by MTS assay
- Assay type: cell-based
I'd be grateful if you could share measured GI50 for these entries.
Number in nM, nothing else.

Qu. # query: GI50 of entry Cc1ccc(C(=O)Nc2ccc(CN3CCN(C)CC3)c(C(F)(F)F)c2)cc1Oc1nc(-c2cccnc2)nc2[nH]ncc12
Ans. 21

Qu. Please give the measured GI50 for this compound: Cc1ccc(C(=O)Nc2ccc(CN3CCN(C)CC3)c(C(F)(F)F)c2)cc1Oc1nc(-c2cccnc2)nc2c1cnn2C
Ans. 113

Qu. Reported GI50, compound CN1CCN(Cc2ccc(C(=O)Nc3cc(Oc4nc(-c5ccncc5)nc5c4cnn5C)ccc3Cl)cc2C(F)(F)F)CC1 : ____
Ans. 8190

Qu. Request the reported GI50 associated with Cc1ccc(Oc2nc(-c3ccncc3)nc3[nH]ncc23)cc1NC(=O)c1ccc(CN2CCN(C)CC2)c(C(F)(F)F)c1
Ans. 757
